These data points were gathered from paper PMC6098685.

- MEASURED TARGET: β-Glucocerebrosidase (GCase) (Homo sapiens, UniProt P04062)
- Sequence (P04062 40-536): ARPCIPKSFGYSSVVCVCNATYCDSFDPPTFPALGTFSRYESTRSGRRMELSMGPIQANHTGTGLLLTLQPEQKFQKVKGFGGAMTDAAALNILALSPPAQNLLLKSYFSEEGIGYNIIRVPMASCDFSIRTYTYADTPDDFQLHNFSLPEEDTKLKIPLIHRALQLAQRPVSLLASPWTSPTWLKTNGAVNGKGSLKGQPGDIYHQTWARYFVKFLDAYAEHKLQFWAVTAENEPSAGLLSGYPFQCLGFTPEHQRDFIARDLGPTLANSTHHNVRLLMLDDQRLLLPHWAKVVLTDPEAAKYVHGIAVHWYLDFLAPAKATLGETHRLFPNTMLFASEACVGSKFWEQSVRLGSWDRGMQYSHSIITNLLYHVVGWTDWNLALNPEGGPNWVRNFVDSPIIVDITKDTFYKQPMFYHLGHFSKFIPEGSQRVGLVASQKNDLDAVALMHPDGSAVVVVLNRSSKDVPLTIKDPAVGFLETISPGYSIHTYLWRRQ
- EXPERIMENT: X-ray crystal structure
- Type: biochemical
MEASURE NAME: pIC50
Give bare numbers, as −log10 of the molar value.

Item O=C(CCCCCCCCC#Cc1ccc2c(c1)CC(Nc1nc(-c3cccnc3)nc3ccccc13)C2)ON1C(=O)CCC1=O (stereo not shown) ; assay system β-Glucocerebrosidase (GCase) (Homo sapiens, UniProt P04062); pIC50 reported as 7.25

----------
- MEASURED TARGET: β-Glucocerebrosidase (GCase) (Homo sapiens)
- EXPERIMENT: 4MU-β-Glc fluorescence enzyme assay
- Type: biochemical
MEASURE NAME: pIC50
One number for each entry, as −log10 of the molar value.

c1cncc(-c2nc(NC3Cc4ccccc4C3)c3ccccc3n2)c1 has a reported pIC50 of 8.10
